FYI, the data here is from patent US20200377594A1.

ASSAY_SYSTEM: T1, recombinant cynomolgus CD3e (22-49)-Fc2(K105-K330) (cynomolgus monkey)
T1 construct: also called cyCD3e(22-49)_Fc2(K105-K330); cyCD3 epsilon 22-49/Fc
EXPERIMENT_SUMMARY: ELISA, 1 nM antigen coated, IgG titrated, anti-human F(ab')2-AP detection
QUANTITY_MEASURED: EC50 (nM)
Report the value in nM with no unit label.

Query string: Bench note: what EC50 did mAb#Gladbach (antibody, human IgG1, lambda, V domains shown) VH: QVQLVESGGGLVKPGGSLRLSCAASGFTFNTYAMNWIRQAPGKGLEWVSRIRSKYNNYATYYADSVKDRFTISRDNAKNSLYLQMNSLRAEDTAVYYCVRHGNFGNSYVSWFAYWGQGTLVTVSS VL: QTVVTQEPSLTVSPGGTVTLTCRSSTGAVTTSNYANWVQQKPGQAPRGLIGGTKFLAPGTPARFSGSLLGGKAALTLSGVQPEDEAEYYCALWYSNLWVFGGGTKLTVLG show?
Result string: 0.21

Query string: If you can, please state the reported EC50 value of mAb#Freiburg (antibody, human IgG1, lambda, V domains shown) VH: EVQLVESGGGLVKPGGSLRLSCAASGFTFNTYAMNWVRQAPGKGLEWVGRIRSKYNNYATYYADSVKDRFTISRDDSKNTLYLQMNSLKTEDTAVYYCTTHGNFGNSYVSWFAYWGQGTLVTVSS VL: QTVVTQEPSLTVSPGGTVTLTCRSSTGAVTTSNYANWVQQKPGQAPRGLIGGTNKRAPGTPARFSGSLLGGKAALTLLGAQPEDEAEYYCALWYSNLWVFGGGTKLTVLG .
Result string: 1.26

Query string: Need EC50, item mAb#München (antibody, human IgG1, lambda, V domains shown, also called Munchen) VH: EVQLVESGGGLVKPGGSLRLSCAASGFTFNTYAMNWVRQAPGKGLEWVGRIRSKYNNYATYYADSVKDRFTISRDDSKNTLYLQMNSLKTEDTAVYYCTTHGNFGNSYVSWFAYWGQGTLVTVSS VL: QTVVTQEPSLTVSPGGTVTLTCRSSTGAVTTSNYANWVQQKPGQAPRGLIGGTKFLAPGTPARFSGSLLGGKAALTLLGAQPEDEAEYYCALWYSNLWVFGGGTKLTVLG
Result string: 1.43
